For each entry below, report its CC50 at 48 h value.
measurement.description: Antiproliferative activity against human MCF10 cells after 48 hrs by MTT assay
Type: cell-based
Answer in µM, number only, no unit symbol.

The recorded CC50 at 48 h for entry c1ccc(CCCN2CC2c2ccccc2)cc1 (configuration not stated) equals 35.4

The recorded CC50 at 48 h for entry OC(CNCCCCc1ccccc1)c1ccccc1 (configuration not stated) equals 107

The recorded CC50 at 48 h for entry OC(CNCc1ccccc1)c1ccccc1 (configuration not stated) equals 202

The recorded CC50 at 48 h for entry OC(CNCc1ccccc1)c1ccc(Br)cc1 (configuration not stated) equals 116

The recorded CC50 at 48 h for entry OC(CNCCc1ccccc1)c1ccccc1 (configuration not stated) equals 198

The recorded CC50 at 48 h for entry OC(CNc1ccccc1)c1ccccc1 (configuration not stated) equals 316

The recorded CC50 at 48 h for entry c1ccc(CCN2CC2c2ccccc2)cc1 (configuration not stated) equals 37.6

The recorded CC50 at 48 h for entry c1ccc(CN2CC2c2ccccc2)cc1 (configuration not stated) equals 41

The recorded CC50 at 48 h for entry OC(CNCCCCc1ccccc1)c1ccc(Br)cc1 (configuration not stated) equals 58.5

The recorded CC50 at 48 h for entry OC(CNCCCc1ccccc1)c1ccccc1 (configuration not stated) equals 196

The recorded CC50 at 48 h for entry c1ccc(CCCCN2CC2c2ccccc2)cc1 (configuration not stated) equals 43.3

The recorded CC50 at 48 h for entry CCCCNCC(O)c1ccccc1 (configuration not stated) equals 188

====

measurement.description: Selectivity index, ratio of CC50 for human MCF10 cells to IC50 for human MDA-MB-231 cells
Type: toxicity
conditions: MCF10 cells versus MDA-MB-231 cells, read-out: Ratio CC50/IC50
measured.attribute: selectivity ratio

The recorded selectivity ratio for entry OC(CNCc1ccccc1)c1ccccc1 (configuration not stated) equals 0.89

The recorded selectivity ratio for entry OC(CNCCCc1ccccc1)c1ccccc1 (configuration not stated) equals 1.92

The recorded selectivity ratio for entry c1ccc(CN2CC2c2ccccc2)cc1 (configuration not stated) equals 1.01

The recorded selectivity ratio for entry c1ccc(CCN2CC2c2ccccc2)cc1 (configuration not stated) equals 1.97

The recorded selectivity ratio for entry OC(CNCCc1ccccc1)c1ccccc1 (configuration not stated) equals 1.04

The recorded selectivity ratio for entry OC(CNCc1ccccc1)c1ccc(Br)cc1 (configuration not stated) equals 1.56

The recorded selectivity ratio for entry OC(CNCCCCc1ccccc1)c1ccccc1 (configuration not stated) equals 2.11

The recorded selectivity ratio for entry CCCCNCC(O)c1ccccc1 (configuration not stated) equals 0.72

The recorded selectivity ratio for entry OC(CNCCCCc1ccccc1)c1ccc(Br)cc1 (configuration not stated) equals 2.57

The recorded selectivity ratio for entry c1ccc(CCCN2CC2c2ccccc2)cc1 (configuration not stated) equals 1.77

The recorded selectivity ratio for entry OC(CNc1ccccc1)c1ccccc1 (configuration not stated) equals 1.33

The recorded selectivity ratio for entry c1ccc(CCCCN2CC2c2ccccc2)cc1 (configuration not stated) equals 4.08

====

System: MDA-MB-231
measurement.description: Antiproliferative activity against human MDA-MB-231 cells after 48 hrs by MTT assay
Assay type: functional, cell-based
conditions: MDA-MB-231, 48 h
pIC50: −log10 of the molar value.
Is pIC50 at least 4? Then True. If not, False.

Problem: Record OC(CNCCCCc1ccccc1)c1ccc(Br)cc1 (configuration not stated) ; criterion: pIC50 no lower than 4. Met?
Solution: True

Problem: Record OC(CNCCCCc1ccccc1)c1ccccc1 (configuration not stated) ; criterion: pIC50 no lower than 4. Met?
Solution: True

Problem: Record CCCCNCC(O)c1ccccc1 (configuration not stated) ; criterion: pIC50 no lower than 4. Met?
Solution: False

Problem: Record c1ccc(CCCN2CC2c2ccccc2)cc1 (configuration not stated) ; criterion: pIC50 no lower than 4. Met?
Solution: True

Problem: Record c1ccc(CCN2CC2c2ccccc2)cc1 (configuration not stated) ; criterion: pIC50 no lower than 4. Met?
Solution: True

Problem: Record c1ccc(CN2CC2c2ccccc2)cc1 (configuration not stated) ; criterion: pIC50 no lower than 4. Met?
Solution: True

Problem: Record OC(CNCc1ccccc1)c1ccccc1 (configuration not stated) ; criterion: pIC50 no lower than 4. Met?
Solution: False

Problem: Record OC(CNc1ccccc1)c1ccccc1 (configuration not stated) ; criterion: pIC50 no lower than 4. Met?
Solution: False

Problem: Record OC(CNCCc1ccccc1)c1ccccc1 (configuration not stated) ; criterion: pIC50 no lower than 4. Met?
Solution: False

Problem: Record c1ccc(CCCCN2CC2c2ccccc2)cc1 (configuration not stated) ; criterion: pIC50 no lower than 4. Met?
Solution: True

Problem: Record OC(CNCc1ccccc1)c1ccc(Br)cc1 (configuration not stated) ; criterion: pIC50 no lower than 4. Met?
Solution: True

Values were extracted from ChEMBL document CHEMBL4261579.
